Molecular target: T1, MRJP-3 (jelly-purified) (Apis mellifera, UniProt Q17060 21-544)
T1 sequence: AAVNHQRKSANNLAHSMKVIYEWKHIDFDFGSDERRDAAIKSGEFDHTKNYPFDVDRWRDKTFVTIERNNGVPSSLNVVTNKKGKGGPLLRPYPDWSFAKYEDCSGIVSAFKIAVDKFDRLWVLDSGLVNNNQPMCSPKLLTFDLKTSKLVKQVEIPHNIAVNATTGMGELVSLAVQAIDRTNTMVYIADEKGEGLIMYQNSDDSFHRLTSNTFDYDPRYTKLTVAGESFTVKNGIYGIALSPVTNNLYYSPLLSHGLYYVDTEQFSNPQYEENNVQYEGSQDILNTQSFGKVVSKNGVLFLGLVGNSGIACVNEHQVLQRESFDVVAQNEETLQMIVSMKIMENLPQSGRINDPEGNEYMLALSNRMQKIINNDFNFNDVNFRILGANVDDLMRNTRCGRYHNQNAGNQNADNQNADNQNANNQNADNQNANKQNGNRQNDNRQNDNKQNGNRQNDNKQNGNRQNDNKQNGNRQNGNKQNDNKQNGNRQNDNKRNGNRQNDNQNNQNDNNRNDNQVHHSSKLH
Assay: MST; third of three binding phases; MST: RJ buffer (composition not in material) + 0.01% Tween 20, 25 C; EMSA: room temperature 0.5-3 h, 0.8% agarose, 1xTAE
Conditions: protein: native; label: Alexa Fluor 488 (Ulysis) for MST
assay.endpoint: Kd

> print(dat)
                                     binder  measured.result
1  UCAUAUGGGCUCACUGUUACUA (ssRNA) [22 nt ssRNA]            25 µM
